Listed compounds paired with reported pIC50
test target: UniProt Q9UBN7
Sequence (Q9UBN7 whole entry): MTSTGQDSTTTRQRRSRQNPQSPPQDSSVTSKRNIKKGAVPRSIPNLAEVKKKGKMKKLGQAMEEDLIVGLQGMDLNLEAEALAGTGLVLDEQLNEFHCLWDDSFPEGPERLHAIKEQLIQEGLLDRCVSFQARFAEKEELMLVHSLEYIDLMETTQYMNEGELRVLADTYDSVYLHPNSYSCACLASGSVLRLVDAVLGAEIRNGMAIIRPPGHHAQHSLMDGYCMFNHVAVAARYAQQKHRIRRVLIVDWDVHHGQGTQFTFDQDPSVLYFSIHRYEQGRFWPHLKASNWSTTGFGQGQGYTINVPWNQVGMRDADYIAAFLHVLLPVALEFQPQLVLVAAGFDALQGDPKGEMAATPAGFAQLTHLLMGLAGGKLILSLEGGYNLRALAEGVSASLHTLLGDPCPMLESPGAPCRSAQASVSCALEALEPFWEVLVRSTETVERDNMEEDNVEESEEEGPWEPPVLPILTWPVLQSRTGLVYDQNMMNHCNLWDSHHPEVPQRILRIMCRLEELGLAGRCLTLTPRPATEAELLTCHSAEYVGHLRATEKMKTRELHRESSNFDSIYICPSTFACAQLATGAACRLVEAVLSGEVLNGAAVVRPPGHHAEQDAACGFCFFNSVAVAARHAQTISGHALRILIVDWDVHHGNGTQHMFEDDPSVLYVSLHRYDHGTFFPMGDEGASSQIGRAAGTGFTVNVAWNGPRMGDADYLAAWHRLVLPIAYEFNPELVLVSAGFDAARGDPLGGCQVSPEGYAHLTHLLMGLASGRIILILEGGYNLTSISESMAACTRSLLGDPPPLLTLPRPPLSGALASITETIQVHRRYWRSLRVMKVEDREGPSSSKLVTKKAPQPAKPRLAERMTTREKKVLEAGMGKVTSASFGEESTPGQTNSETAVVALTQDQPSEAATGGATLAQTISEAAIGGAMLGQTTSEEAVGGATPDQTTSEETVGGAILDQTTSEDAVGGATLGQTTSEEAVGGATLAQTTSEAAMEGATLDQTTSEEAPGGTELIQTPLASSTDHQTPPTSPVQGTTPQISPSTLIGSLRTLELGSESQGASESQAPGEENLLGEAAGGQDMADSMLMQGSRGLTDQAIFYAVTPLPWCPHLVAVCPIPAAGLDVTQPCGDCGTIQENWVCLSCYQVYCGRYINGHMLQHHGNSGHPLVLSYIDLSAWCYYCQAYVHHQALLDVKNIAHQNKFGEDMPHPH
experiment notes: HDAC6 enzymatic activity assay (Caliper endpoint or fluorogenic format)
Assay type: biochemical
recorded conditions: in vitro enzymatic
pIC50: −log10 of the molar value.

Example entries begin here.
Fc1ccc(OCc2ncc(-c3nnc(C(F)F)o3)cn2)cc1 [Compound 1]: 7.00 to 9.00
FC(F)c1nnc(-c2ccc(COc3ccc4c(c3)CCCC4)nc2)o1 [Compound 54]: 7.00 to 9.00
FC(F)c1nnc(-c2ccc(COc3cccc4cnccc34)nc2)o1 [Compound 35]: 7.00 to 9.00
Fc1cc(-c2nnc(C(F)F)o2)cnc1COc1cccc2cncnc12 [Compound 161]: 7.00 to 9.00
Cc1ncc(F)c(OCc2ccc(-c3nnc(C(F)F)o3)cn2)n1 [Compound 81]: 7.00 to 9.00

## Task Quick one: pIC50 for FC(F)c1nnc(-c2ccc(COc3ccc(C4CC4)cn3)nc2)o1 [Compound 85] ?
## Result 6.00 to 7.00

## Task So what's the measured pIC50 for this one? Cn1nc(-c2nc3ccc(OCc4ccc(-c5nnc(C(F)F)o5)cn4)cc3o2)ccc1=O [Compound 204]
## Result 7.00 to 9.00

## Task Item Cc1cccnc1OCc1ccc(-c2nnc(C(F)F)o2)cn1 [Compound 73] has what recorded pIC50?
## Result 6.00 to 7.00

## Task What pIC50 value was documented for this compound, FC(F)c1nnc(-c2ccc(COc3ccc(C(F)(F)F)nc3)nc2)o1 [Compound 91] ?
## Result 7.00 to 9.00

## Task Item under review: FC(F)c1nnc(-c2ccc(COc3ccc4c(c3)ncn4CCN3CCCC3)nc2)o1 [Compound 209] . Reported pIC50?
## Result 5.00 to 6.00
